# assay_target: T1, human claudin 18 isoform 2 (claudin 18.2) (human)
# T1 construct: Recombinant on transfected CHO cells (CHO-CLDN18.2) or endogenous on tumor cell lines PATU8988S, NUGC-4, KATOIII; the cell line is named under assay; also called CLDN18.2
# test_name: imaging, PATU8988S cells (endogenous CLDN18.2); +++ = EC50 between 2 nM and 20 nM
Property: EC50; scope: individual binders
measured_attribute: EC50

[[record]]
binder = "Ms15 (antibody, V domains shown) VH: EVQLQQSGPELVRPGASVKMSCRASGYTFTNYIIHWVKQKPGQGLEWIGYFNPYNDGTKYNEIFKDKATLTSDKSSSTAYMELRSLTSEDSAVYYCAKLRQERIAYWGQGTLVTVSA VL: DIQMNQSPSSLSASLGDTITITCHVSQNIDVWLSWYQQKPGNIPKLLIYKASNLHTGVPSRFSGSGSGTGFTLTISSLQPEDIATYYCQQGQSYPLTFGAGTKLELK"
result = "2 to 20 nM"

[[record]]
binder = "Ms19 (antibody, V domains shown) VH: EVQLQQSGPELVKPGASVKMSCKASGYTFTSYVIHWVKQKPGQGLEWIGYINPYNDGSKYNEKFKGKATLTSDKSSSTAYMELSSLTSEDSAVYYCAREGYGKRNALDYWGQGTSVTVSS VL: DIVMTQSPSSLSVSAGERVTMSCKSSQSLLNSGNQKNYLAWYQQKPGQPPKLLIYGASTRESGVPDRFTGSGSGTDFTLIISSVQVEDLAVYYCQNDHFYPLTFGAGTKLELK"
result = "2 to 20 nM"

[[record]]
binder = "Ms21 (antibody, V domains shown) VH: DVQLVESGGGLVQPGGSRKLSCAASGFTFSTFGMHWVRQAPEKGLEWVAFINGDSSSIYYADTVKGRFTISRDNPKNILFLQMTSLRSEDTAMYYCARFARGNSFDYWGQGTTLTVSS VL: DIVMTQSPSSLTVTAGEKVTMSCKSSQSLFNSGNQKNYLTWYQQKPWQPPKLLIYWASTRESGVPDRFTGSGSGTDFTLTITSVQTEDLAVYYCQIGYTYPLTFGAGTKLELK"
result = "2 to 20 nM"

[[record]]
binder = "Ms12 (antibody, V domains shown) VH: EIQLQQSGPELVKPGASVKVSCKASGYAFASYKMYWVKQSHGKSLEWIGYIDPYNGVTSYNQKFRGKATLTVDKSSSTAYMHLNSLTSEDSAVYYCARGAYYGNSFDYWGQGTTLTVSS VL: DIVMTQSPSSLTVTAGEKVTMSCKSSQSLLNSGNQKNYLTWYQQQPGQPPKLLIYWASTRESGVPDRFTGSGSGTDFTLTISSVQAVDLAVYYCQSAYSFPYTFGGGTKLEVK"
result = "2 to 20 nM"

[[record]]
binder = "Ms13 (antibody, V domains shown) VH: EVQLQQSGPELVKPGASVKMSCKASGYTFTRYIMHWVKQKPGQGLEWIGYFNPYNDDSKTSEKFKGKATLTSDKSSSTAYMEINSLTSEDSAVYYCAKLRQERIAYWGQGTLVTVSA VL: DIQMNQSPSSLSASLGDTITITCHASQNIDVWLSWYQQKPGNFPKLLIYKASNLHTGVPSRFSGSGSGTGFTLTISSLQPEDIATYYCQQGQSYPLTFGAGTKLELK"
result = "2 to 20 nM"

[[record]]
binder = "Ms10 (antibody, V domains shown) VH: EVQLQQSGPELEKPGASVKISCKASGYSFTGYKMNWVKQSNGKSLEWIGHIDPYYGGPRYNKKFMGKATLTVDRSSSTAYMQLKSLTSEDSAVYYCARLDYGNSFAYWGQGTLVTVSA VL: DIVMTQSPSSLSVSAGEKVTMSCKSSQSLLNSGNQKNYLAWYQQKPGQPPKLLIYGASTRESGVPDRFTGSGSGTDFTLTISSVQAEDLAVYYCQNDHSYPFTFGGGTKLEIK"
result = "2 to 20 nM"

[[record]]
binder = "Ms17 (antibody, V domains shown) VH: EVQLQQSGPELVKPGASVKMSCKASGYTFTNYIIHWVKQKPGQGLEWIGYFNPYNDGIEYSEKFKGKATLTSDKSSSTAYMELSSLTSEDSAVYYCSKLRQERFAYWGQGTLVTVSA VL: DIQMNQSPSSLSASLGDTITITCHASQNINVWLSWYQQKPGNIPKLLIYKASNLHTGVPSRFSGSGSGTGFTLTISSLQPEDIATYYCQQGQSYPLTFGAGTKLELK"
result = "2 to 20 nM"

[[record]]
binder = "Ms8 (antibody, V domains shown) VH: EIQLQQSGPELVKPGASVKVSCKASDYAFTRYNMYWVKQSHGKSLEWIGYIDPYNGGTNYNQKFKGKATLTVDKSSSTAYMHLNSLTSEDSAVYYCARGGYYGNAMDYWGQGTSVTVSS VL: DIVMTQSPSSLTVTAGEKVTMSCKSSQSLLNSGNQKNYLTWYQQKPGQPPQLLIYWASTRESGVPDRFTGSGSGTDFTLTISSVQAEDLSIYYCQSNYIYPFTFGAGTTLELQ"
result = "2 to 20 nM"

[[record]]
binder = "Ms22 (antibody, V domains shown) VH: QVQLKESGPGLVAPSQSLSITCTVSGFSLTSNGVHWVRQPPGKGLEWLGVIWAGGSTNYNSALMSRLSISKDNSKSQVFLKMNSLQTHDTAMYYCARDKYDGTGFDYWGQGTTLTVSS VL: QIVLTQSPAIMSASPGEKVTMTCSASSSVSNMYWYQQKPGSSPRLLIYDTSNLASGVPVRFSGSGSGTSYSLTISRMEAEDAATYYCQQWSSYPYTFGGGTKLEIK"
result = "2 to 20 nM"

[[record]]
binder = "Ms6 (antibody, V domains shown) VH: QVQLQQSGAELAKPGASVKMSCRASGYTFTSYLMHWIKQRPGQALEWIGYINPTTDYTEYNQKFKGKATLTADKSSSTAYMQLSSLTSEDSAVYYCGRLGYYKRNAMDHWGQGTSVTVSS VL: DIVMTQSPSSLSVSAGEKVTMSCKSSQSLLNSGNQKNYLAWYQQKPGQPPKLLIYGASTRESGVPDRFTGSGSGTDFTLTISSVQAEDLAVYYCQNDHFYPLTFGAGTKLELK"
result = "2 to 20 nM"


Values compiled from patent US20230067757A1.
